- System: Severe acute respiratory syndrome coronavirus 2
- Experiment summary: Binding affinity to N-terminal 6-histidine tagged Severe acute respiratory syndrome coronavirus 2 nucleocapsid protein overexpressed in Escherichia coli BL21 (DE3) assessed as response unit by SPR assay
Property name: Activity (RU)
One number for each entry, in RU.

CCN1Cc2cc(OC)c(OC)cc2-c2cccc(NC(=O)C(C)C)c21 :: 11.8
CCN1Cc2cc(OC)c(OC)cc2-c2cccc(N)c21 :: 145
COc1cc2c(cc1OC)-c1cccc(C)c1N(C(=O)C(F)(F)F)C2 :: 57.5
CCc1cccc2c1N(C)Cc1cc(OCc3cc(C)nn3C)c(OCc3cc(C)nn3C)cc1-2 :: 211
CCn1c(=O)c2cc(OC)c(OC)cc2c2cccc(NC(=O)CCC(=O)OC)c21 :: 13.1

Here are 4 compounds. What values of Activity were reported for them?
1. CCN1Cc2cc(OC)c(OC)cc2-c2cccc(NC(C)=O)c21
2. CCn1c(=O)c2cc(OC)c(OC)cc2c2cccc(N)c21
3. COc1cc2cnc3c(C)cccc3c2cc1OC
4. CCc1cccc2c1N(C(=O)CBr)Cc1ccc(OC)cc1-2

Reply:
1. 14.3
2. 23.1
3. 29.4
4. 22

Working through the 2 compounds below one at a time, give Activity for each.
1. CCN1Cc2cc(OC)c(OC)cc2-c2cccc(NC(=O)C(F)(F)F)c21
2. CCC(=O)Nc1cccc2c1N(CC)Cc1cc(OC)c(OC)cc1-2

Reply:
1. 101
2. 10.6
